# assay-name: Half life in Sprague-Dawley rat at 5 mg/kg, po by LC/MS/MS analysis
# Type: ADME, organism-based
# experimental-context: in vivo
For each record, check the reported half-life: if it is below 6 h write Criterion met, else write Criterion not met.

>  <structure>
Cc1ccc(CN2CCOCC2)cc1NC(=O)c1ccc(Nc2ncc(F)c(-c3ccc(OC(F)(F)F)cc3)n2)cc1

>  <class>
Criterion not met

$$$$
>  <structure>
Cc1c(C(=O)Nc2ccc(N3C[C@@H](C)O[C@@H](C)C3)nc2)cccc1-c1ccc(OC(F)(F)F)cc1

>  <class>
Criterion met

$$$$
>  <structure>
Cc1ccc(CN2CCOCC2)cc1NC(=O)c1ccc(Nc2nccc(-c3ccc(OC(F)(F)F)cc3)n2)cn1

>  <class>
Criterion met

$$$$
>  <structure>
Cc1ccc(CN2CCOCC2)cc1NC(=O)c1ccc(Nc2ncc(F)c(-c3ccc(OC(F)(F)F)cc3)n2)cn1

>  <class>
Criterion not met

$$$$
>  <structure>
CS(=O)(=O)c1ccc(C(=O)Nc2ccc(Cl)c(-c3ccccn3)c2)c(Cl)c1

>  <class>
Criterion met

$$$$
>  <structure>
Cc1ccc(CN2CCOCC2)cc1NC(=O)c1ccc(Nc2nccc(-c3ccc(OC(F)(F)F)cc3)n2)cc1

>  <class>
Criterion not met

$$$$

----------
# Tested on: Rattus norvegicus
# assay-name: Apparent volume of distribution in Sprague-Dawley rat at 5 mg/kg, po by LC/MS/MS analysis
# experimental-context: in vivo
For each record, check the reported Vd(app): if it is below 7000 mL/kg write t, else write f.

>  <structure>
Cc1ccc(CN2CCOCC2)cc1NC(=O)c1ccc(Nc2ncc(F)c(-c3ccc(OC(F)(F)F)cc3)n2)cn1

>  <class>
f

$$$$
>  <structure>
Cc1c(C(=O)Nc2ccc(N3C[C@@H](C)O[C@@H](C)C3)nc2)cccc1-c1ccc(OC(F)(F)F)cc1

>  <class>
t

$$$$
>  <structure>
Cc1ccc(CN2CCOCC2)cc1NC(=O)c1ccc(Nc2nccc(-c3ccc(OC(F)(F)F)cc3)n2)cn1

>  <class>
f

$$$$
>  <structure>
Cc1ccc(CN2CCOCC2)cc1NC(=O)c1ccc(Nc2ncc(F)c(-c3ccc(OC(F)(F)F)cc3)n2)cc1

>  <class>
f

$$$$

----------
# assay-name: Mean resident time (0 to t) in Sprague-Dawley rat at 5 mg/kg, po by LC/MS/MS analysis
# Type: ADME, organism-based
# experimental-context: in vivo
Label condition met when MRT last is at or above 7 h; anything below gets condition not met.

>  <molecule>
Cc1c(C(=O)Nc2ccc(N3C[C@@H](C)O[C@@H](C)C3)nc2)cccc1-c1ccc(OC(F)(F)F)cc1 [SONIDEGIB]

>  <class>
condition not met

$$$$
>  <molecule>
Cc1ccc(CN2CCOCC2)cc1NC(=O)c1ccc(Nc2ncc(F)c(-c3ccc(OC(F)(F)F)cc3)n2)cc1

>  <class>
condition met

$$$$
>  <molecule>
Cc1ccc(CN2CCOCC2)cc1NC(=O)c1ccc(Nc2ncc(F)c(-c3ccc(OC(F)(F)F)cc3)n2)cn1

>  <class>
condition met

$$$$
>  <molecule>
CS(=O)(=O)c1ccc(C(=O)Nc2ccc(Cl)c(-c3ccccn3)c2)c(Cl)c1 [VISMODEGIB]

>  <class>
condition not met

$$$$
>  <molecule>
Cc1ccc(CN2CCOCC2)cc1NC(=O)c1ccc(Nc2nccc(-c3ccc(OC(F)(F)F)cc3)n2)cn1

>  <class>
condition not met

$$$$

Entry source: ChEMBL document CHEMBL3763021
